Reported IC50 values for a set of compounds
Target: Fyn (Homo sapiens)
Construct: (Fyn, LynA, and Yes1, all human recombinant full-length proteins)
Assay: Z'-LYTE kinase assay (FRET), SFK profiling
Conditions: isolated enzyme, mean ± SD of two independent experiments
State the answer as a number, implicitly in nM.

COc1ccccc1CCn1cnc(Nc2cc(N3CCN(CCO)CC3)nc(C)n2)c1 [4c]
439

Name the recorded IC50 for Cc1nc(Nc2cn(CCc3ccccc3O)cn2)cc(N2CCN(CC(N)=O)CC2)n1 [4g] .
40

Name the recorded IC50 for Cc1nc(Nc2cn(CCc3ccccc3O)cn2)cc(N2CCN(CCO)CC2)n1 [4e] .
73

###

Target: active human recombinant Src (Homo sapiens)
Sequence (P12931 whole entry): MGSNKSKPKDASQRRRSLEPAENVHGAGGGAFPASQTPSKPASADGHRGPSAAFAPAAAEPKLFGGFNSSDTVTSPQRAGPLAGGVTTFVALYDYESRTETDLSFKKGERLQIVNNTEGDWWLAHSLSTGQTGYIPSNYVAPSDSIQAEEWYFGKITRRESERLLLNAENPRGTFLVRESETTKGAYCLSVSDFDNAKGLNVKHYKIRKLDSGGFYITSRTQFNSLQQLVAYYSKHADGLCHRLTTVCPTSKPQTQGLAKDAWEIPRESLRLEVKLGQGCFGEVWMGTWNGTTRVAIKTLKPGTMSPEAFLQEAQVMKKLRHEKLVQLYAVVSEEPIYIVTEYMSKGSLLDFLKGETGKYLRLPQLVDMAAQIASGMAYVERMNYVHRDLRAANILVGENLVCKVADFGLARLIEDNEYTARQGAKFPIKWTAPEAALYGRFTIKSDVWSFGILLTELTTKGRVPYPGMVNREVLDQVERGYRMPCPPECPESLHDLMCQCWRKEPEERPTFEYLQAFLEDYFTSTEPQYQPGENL
Experiment: Z'-LYTE kinase assay (FRET), primary screen
Conditions: isolated enzyme, mean ± SD of two independent experiments
Binarize IC50 at 80 nM; below is 1.0, at or above is 0.0.

The examples below pair each entry with its known result.
Cc1nc(Nc2cn(CCc3ccccc3O)cn2)cc(N2CCN(CCO)CC2)n1 [4e]
1.0
Cc1nc(Nc2cn(CCc3cccc(O)c3)cn2)cc(N2CCN(C(=O)OC(C)(C)C)CC2)n1 [4l]
1.0
COc1ccccc1CCn1cnc(Nc2cc(N3CCN(CC(N)=O)CC3)nc(C)n2)c1 [4d]
0.0
COC(=O)CN1CCN(c2cc(Nc3cn(CCc4cccc(O)c4)cn3)nc(C)n2)CC1 [4k]
1.0
COc1cccc(CCn2cnc(Nc3cc(N4CCN(CC(N)=O)CC4)nc(C)n3)c2)c1 [4b]
0.0
COc1cccc(CCn2cnc(Nc3cc(N4CCN(CCO)CC4)nc(C)n3)c2)c1 [4a]
0.0

API: query returns whether the molecule falls strictly under 80 nM in IC50. Query: Cc1nc(Nc2cn(CCc3ccccc3O)cn2)cc(N2CCN(CC(N)=O)CC2)n1 [4g]
1.0

API: query returns whether the molecule falls strictly under 80 nM in IC50. Query: Cc1nc(Nc2cn(CCc3ccccc3O)cn2)cc(N2CCNCC2)n1 [4f]
1.0

API: query returns whether the molecule falls strictly under 80 nM in IC50. Query: Cc1nc(Nc2cn(CCc3cccc(O)c3)cn2)cc(N2CCNCC2)n1 [4i]
0.0

###

Molecular target: Yes1 (Homo sapiens, UniProt P07947)
Construct: (Fyn, LynA, and Yes1, all human recombinant full-length proteins)
Sequence (P07947 whole entry): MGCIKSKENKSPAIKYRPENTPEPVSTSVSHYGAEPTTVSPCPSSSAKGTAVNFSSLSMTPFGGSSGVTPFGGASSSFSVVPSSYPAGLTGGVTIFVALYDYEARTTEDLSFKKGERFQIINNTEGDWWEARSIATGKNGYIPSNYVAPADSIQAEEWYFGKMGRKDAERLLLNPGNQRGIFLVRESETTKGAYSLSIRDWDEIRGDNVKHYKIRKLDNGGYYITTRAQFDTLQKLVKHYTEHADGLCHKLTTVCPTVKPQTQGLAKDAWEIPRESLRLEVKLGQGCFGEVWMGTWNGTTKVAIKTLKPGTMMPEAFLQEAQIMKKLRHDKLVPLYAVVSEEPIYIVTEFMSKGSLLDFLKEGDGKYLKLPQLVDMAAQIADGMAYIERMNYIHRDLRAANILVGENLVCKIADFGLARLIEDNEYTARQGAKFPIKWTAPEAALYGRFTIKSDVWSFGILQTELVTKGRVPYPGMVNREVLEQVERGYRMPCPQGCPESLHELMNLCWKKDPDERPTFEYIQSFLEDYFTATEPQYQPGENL
Experiment: Z'-LYTE kinase assay (FRET), SFK profiling
Assay type: biochemical
Conditions: isolated enzyme, mean ± SD of two independent experiments; read-out: Yes IC50
Binarize IC50 at 10 nM; below is 1, at or above is -1.

The examples below pair each entry with its known result.
COc1ccccc1CCn1cnc(Nc2cc(N3CCN(CCO)CC3)nc(C)n2)c1 [4c]
-1
Cc1nc(Nc2cn(CCc3ccccc3O)cn2)cc(N2CCNCC2)n1 [4f]
1

API: query returns whether the compound falls strictly under 10 nM in IC50. Query: Cc1nc(Nc2cn(CCc3cccc(O)c3)cn2)cc(N2CCN(CC(N)=O)CC2)n1 [4j]
1

API: query returns whether the compound falls strictly under 10 nM in IC50. Query: COc1cccc(CCn2cnc(Nc3cc(N4CCN(CC(N)=O)CC4)nc(C)n3)c2)c1 [4b]
-1

API: query returns whether the compound falls strictly under 10 nM in IC50. Query: COc1cccc(CCn2cnc(Nc3cc(N4CCN(CCO)CC4)nc(C)n3)c2)c1 [4a]
-1

API: query returns whether the compound falls strictly under 10 nM in IC50. Query: Cc1nc(Nc2cn(CCc3ccccc3O)cn2)cc(N2CCN(CC(N)=O)CC2)n1 [4g]
-1

API: query returns whether the compound falls strictly under 10 nM in IC50. Query: COC(=O)CN1CCN(c2cc(Nc3cn(CCc4cccc(O)c4)cn3)nc(C)n2)CC1 [4k]
1

API: query returns whether the compound falls strictly under 10 nM in IC50. Query: Cc1nc(Nc2cn(CCc3cccc(O)c3)cn2)cc(N2CCN(CCO)CC2)n1 [4h]
1

API: query returns whether the compound falls strictly under 10 nM in IC50. Query: Cc1nc(Nc2cn(CCc3cccc(O)c3)cn2)cc(N2CCNCC2)n1 [4i]
1

API: query returns whether the compound falls strictly under 10 nM in IC50. Query: Cc1nc(Nc2cn(CCc3cccc(O)c3)cn2)cc(N2CCN(C(=O)OC(C)(C)C)CC2)n1 [4l]
1

API: query returns whether the compound falls strictly under 10 nM in IC50. Query: Cc1nc(Nc2cn(CCc3ccccc3O)cn2)cc(N2CCN(CCO)CC2)n1 [4e]
-1

###

Molecular target: LynA (Homo sapiens)
Construct: (Fyn, LynA, and Yes1, all human recombinant full-length proteins)
Sequence (P07948 whole entry): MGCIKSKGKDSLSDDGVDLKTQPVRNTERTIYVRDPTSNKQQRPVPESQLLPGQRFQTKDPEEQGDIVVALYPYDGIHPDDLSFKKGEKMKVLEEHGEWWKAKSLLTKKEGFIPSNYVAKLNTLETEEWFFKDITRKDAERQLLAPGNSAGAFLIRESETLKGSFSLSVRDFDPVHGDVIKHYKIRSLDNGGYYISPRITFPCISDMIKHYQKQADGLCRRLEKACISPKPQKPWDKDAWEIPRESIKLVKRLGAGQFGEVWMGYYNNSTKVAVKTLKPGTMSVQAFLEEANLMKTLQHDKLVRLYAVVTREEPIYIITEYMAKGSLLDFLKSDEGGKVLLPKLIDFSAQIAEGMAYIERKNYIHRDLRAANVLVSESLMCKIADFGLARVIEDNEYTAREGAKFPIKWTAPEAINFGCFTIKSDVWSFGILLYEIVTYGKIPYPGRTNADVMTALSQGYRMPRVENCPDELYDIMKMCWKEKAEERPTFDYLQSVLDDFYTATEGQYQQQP
Assay: Z'-LYTE kinase assay (FRET), SFK profiling
Details: isolated enzyme, mean ± SD of two independent experiments; read-out: Lyn IC50
Recorded Endpoint: pIC50
In simple prose, pIC50 is minus the logarithm base ten of a concentration in moles per litre.

Cc1nc(Nc2cn(CCc3ccccc3O)cn2)cc(N2CCNCC2)n1 [4f]
7.29
Cc1nc(Nc2cn(CCc3cccc(O)c3)cn2)cc(N2CCNCC2)n1 [4i]
7.57

Please find the next compound below.
Name the recorded pIC50 for COc1ccccc1CCn1cnc(Nc2cc(N3CCN(CCO)CC3)nc(C)n2)c1 [4c] .
6.84

###

Target: Fyn (Homo sapiens, UniProt P06241)
Construct: (Fyn, LynA, and Yes1, all human recombinant full-length proteins)
Sequence (P06241 whole entry): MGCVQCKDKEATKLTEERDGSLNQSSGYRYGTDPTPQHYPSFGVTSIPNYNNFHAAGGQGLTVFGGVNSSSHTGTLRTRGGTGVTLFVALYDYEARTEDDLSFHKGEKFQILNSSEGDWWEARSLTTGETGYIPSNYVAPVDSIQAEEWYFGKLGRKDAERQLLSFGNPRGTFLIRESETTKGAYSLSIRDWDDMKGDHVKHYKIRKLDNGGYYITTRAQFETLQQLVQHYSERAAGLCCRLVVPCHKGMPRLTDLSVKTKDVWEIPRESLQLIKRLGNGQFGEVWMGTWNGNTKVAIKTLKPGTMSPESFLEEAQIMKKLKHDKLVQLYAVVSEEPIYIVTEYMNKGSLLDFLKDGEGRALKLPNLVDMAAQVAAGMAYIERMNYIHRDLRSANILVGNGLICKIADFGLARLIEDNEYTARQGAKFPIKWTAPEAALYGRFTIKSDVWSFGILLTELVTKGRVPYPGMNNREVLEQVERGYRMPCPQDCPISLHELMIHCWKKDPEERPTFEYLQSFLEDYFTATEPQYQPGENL
Test: Z'-LYTE kinase assay (FRET), SFK profiling
Conditions: isolated enzyme, mean ± SD of two independent experiments
Recorded Endpoint: pIC50
In simple prose, pIC50 is minus the logarithm base ten of a concentration in moles per litre.

Example entries begin here.
Cc1nc(Nc2cn(CCc3cccc(O)c3)cn2)cc(N2CCN(CC(N)=O)CC2)n1
7.92
COc1cccc(CCn2cnc(Nc3cc(N4CCN(CCO)CC4)nc(C)n3)c2)c1
6.84
COC(=O)CN1CCN(c2cc(Nc3cn(CCc4cccc(O)c4)cn3)nc(C)n2)CC1
8.05
Cc1nc(Nc2cn(CCc3ccccc3O)cn2)cc(N2CCNCC2)n1
7.30
Cc1nc(Nc2cn(CCc3cccc(O)c3)cn2)cc(N2CCN(CCO)CC2)n1
8.00

Field: pIC50 (Fyn (Homo sapiens, UniProt P06241)). Entry: Cc1nc(Nc2cn(CCc3cccc(O)c3)cn2)cc(N2CCN(C(=O)OC(C)(C)C)CC2)n1
7.85

Field: pIC50 (Fyn (Homo sapiens, UniProt P06241)). Entry: COc1cccc(CCn2cnc(Nc3cc(N4CCN(CC(N)=O)CC4)nc(C)n3)c2)c1
5.84

Field: pIC50 (Fyn (Homo sapiens, UniProt P06241)). Entry: COc1ccccc1CCn1cnc(Nc2cc(N3CCN(CC(N)=O)CC3)nc(C)n2)c1
5.86
